- Tested on: DeltatarO mutant
- EXPERIMENTAL DETAILS: S. aureus survival, RN4220 and DeltatarO strains – OD600, teichoic acid synthesis inhibitors, primary screen (AID 463173)
- MEASUREMENT CONDITIONS: S. aureus RN4220 wild type/DeltatarO growth, OD600, 18 h, screened at 18.75 µg/mL (by protocol)
Among all 52,000 compounds or so, about 4,300 (8.3%) were called active. Cut-off read from the data, not from the text of the source: active = survival mostly below about 52% (no sharp cut-off); inactive = mostly above about 56%. The sample holds actives, similar compounds and a random draw of the others, so the mix is not that of the screen.
One label from this list, please: label 1 for active, label 0 for inactive

Reference set (5 entries):
> print(dat)
                                  structure  class.label
1  O=C(NCc1ccc2c(c1)CCN2C(=O)c1ccccc1)c1cc2ccccc2[nH]1      label 1
2             O=C(Nc1cc2c(s1)CCCC2)c1ccccc1      label 1
3          Cc1cccc(C(=O)Nc2nc3c(s2)CCCC3)c1      label 0
4               O=C(Nc1onc2c1CCCC2)c1ccccc1      label 0
5  COc1ccc(OCC(=O)NCc2ccc3c(c2)CCN3C(=O)c2cccc(C)c2)cc1      label 0

Below: the item to evaluate.
Fill in: this test's call for COc1ccc2cc(C(=O)NCc3ccc4c(c3)CCN4C(=O)c3ccc(C)cc3)[nH]c2c1 is ___
label 0

====

- Tested on: DeltatarO mutant
- EXPERIMENTAL DETAILS: S. aureus survival, RN4220 and DeltatarO strains – OD600, teichoic acid synthesis inhibitors, primary screen (AID 463173)
- MEASUREMENT CONDITIONS: S. aureus RN4220 wild type/DeltatarO growth, OD600, 18 h, hits give low values, screened at 18.75 µg/mL (by protocol)
The campaign covered roughly 52,000 compounds. About 4,300 (8.3%) were called active. The full list was thinned out, with actives kept by preference.
READOUT NAME: survival (%)
Numeric only. Scale: %

Check out these entries, answers already filled in.
> print(dat)
                                   molecule  experimental.value
1        O=C(NCc1ccc(Cl)cc1)NCc1noc2ccccc12                  41
2  CCc1nn(CCCC(=O)N2CCN(c3ccc(OC)cc3)CC2)c(=O)c2cc3occc3n12                  87
3  CCOc1ccc(CCNC(=O)Cn2nnc(-c3ccc(OC)c(OC)c3)n2)cc1OCC                  65
4  O=C(O)c1c(-c2ccccc2)oc2ccc(OCc3c(F)cccc3Cl)cc12                  29
5  CC(CCc1ccccc1)NC(=O)CSc1n[nH]c(-c2ccc(F)cc2)n1 (stereo not drawn)                 126

The measured survival associated with CC1CCCCN1C(=O)C1COc2ccccc2O1 (stereo not drawn) reads 65

The measured survival associated with C=CCC1N(c2ccccc2)C(=O)C2C(C(=O)O)C3C=CC21O3 (stereo not drawn) reads 103

====

- System: DeltatarO mutant
- EXPERIMENTAL DETAILS: S. aureus survival, RN4220 and DeltatarO strains – OD600, teichoic acid synthesis inhibitors, primary screen (AID 463173)
- MEASUREMENT CONDITIONS: S. aureus RN4220 wild type/DeltatarO growth, OD600, 18 h, hits give low values, screened at 18.75 µg/mL (by protocol)
Out of some 52,000 compounds screened, about 4,300 (8.3%) were called active. Only a selection was taken, and actives are over-represented in it overall.
Quick reference: survival of the listed items.
Numeric only. Scale: %

Check out these entries, answers already filled in.
> print(dat)
                                   compound  experimental.value
1  Cc1cccc(CC(=O)NCCc2csc(-c3ccc(C(F)(F)F)cc3)n2)c1                 101
2  COc1cc(NC(=O)C2CCN(S(=O)(=O)c3ccc4c(c3)oc(=O)n4C)CC2)cc(OC)c1                 102
3  Cc1ccc(/C=C/c2nc3ccccc3n2S(=O)(=O)c2cccc(Cl)c2)cc1                  77

The measured survival associated with COc1cc(C)c(Cl)cc1S(=O)(=O)NCCc1c(C)[nH]c2ccccc12 reads 37

The measured survival associated with CCOC(=O)c1c(NC(=O)c2cc3ccccc3c(=O)o2)sc2c1CCC(C(C)(C)C)C2 (configuration not stated) reads 53
